// provenance: PubChem BioAssay (NCI)

Tested on: SF-295 CNS
Test: NCI-60 one-dose screen, 48 h (100 = growth as untreated, 0 = no growth, -100 = all killed)
Settings: 10 µM unless noted
The panel holds about 83,000 compounds, 20% with a hit somewhere; the sample as a whole holds those more often.
Label Criterion met when growth < 70%; otherwise Criterion not met.

[
  {
    "COMPOUND": "COc1ccc(C2N(c3cc(OC)c(OC)c(OC)c3)C(=O)C2(F)F)cc1F (centres undefined)",
    "CLASSIFICATION": "Criterion met"
  },
  {
    "COMPOUND": "NS(=O)(=O)c1ccc(C2C3=C(CCCC3=O)OC3=C2C(=O)c2ccccc2C3=O)cc1 (centres undefined)",
    "CLASSIFICATION": "Criterion met"
  },
  {
    "COMPOUND": "COc1ccc(/C=C(/C(=O)N2CCN(Cc3ccccc3)CC2)c2cc(OC)c(OC)c(OC)c2)cc1O",
    "CLASSIFICATION": "Criterion not met"
  }
]

**Query** In plain terms, does `O=C(Nc1cc(Nc2ncccc2-c2ncnc3nc[nH]c23)ccc1F)c1cc(C(F)(F)F)cc(C(F)(F)F)c1` come in under 70% for growth?
**Result** Criterion met

**Query** // same read-out, input: COC1=CC2C=C(C3N(c4ccccc4)NC(=O)[C@@H]4CCCN34)C(=O)NC2C=C1 (some centres undefined)
**Result** Criterion not met

**Query** Moving on to COC(=O)c1cc2c3c(cc(O)c2[nH]1)N(C(=O)C1Cc2cc(OC)c(OC)c(OC)c2N1)CC3CCl (centres undefined)
**Result** Criterion met

**Query** What do you have for `COc1cccc(NC(=O)Nc2ccc(Oc3ncnc4[nH]c(C)c(C)c34)cc2)c1` ?
**Result** Criterion not met

**Query** What do you have for `CN1CCN(C(=O)[C@@]2(C)CC[C@]3(C)CC[C@]4(C)C(=CC[C@@H]5[C@@]6(C)CC[C@H](OC(=O)c7cccnc7)C(C)(C)[C@@H]6CC[C@]54C)[C@@H]3C2)CC1` ?
**Result** Criterion met

**Query** What do we get for `S=C(Nc1ccc(Cl)cc1)c1ccccn1` ?
**Result** Criterion not met

---

Tested on: A549/ATCC NSCLC
Test: NCI-60 one-dose screen, 48 h
Details: 10 µM unless noted
About 83,000 compounds went through this panel and 20% of them were active in at least one assay; those are over-represented in the sample as a whole. Activity calls are given as the source filed them. The calls were made as follows: active = growth percent below 10; inactive = the rest.
One label from this list, please: yes for active, no for inactive

[
  {
    "COMPOUND": "CCOCCc1c(O)nc(SC)[nH]c1=O",
    "CLASSIFICATION": "no"
  },
  {
    "COMPOUND": "CCCCCCC/C=C/[C@H]1O[C@]23C(=O)C[C@@]4(C[C@@H](OC5OC(CO)C(O)C(O)C5O)C[C@@H]4[C@H]2C=C1C)OC3=O (stereo not given in full)",
    "CLASSIFICATION": "no"
  },
  {
    "COMPOUND": "COc1cc(/C=C/CO)cc(OC)c1O[C@@H]1O[C@H](CO)[C@@H](O)[C@H](O)[C@H]1O",
    "CLASSIFICATION": "no"
  },
  {
    "COMPOUND": "Cc1c(C(=O)Nc2nc3ccccc3[nH]2)cnn1-c1ccccn1",
    "CLASSIFICATION": "no"
  },
  {
    "COMPOUND": "CCN(CC)c1ccc2c(c1)Oc1nc(N)c(C#N)c(N)c1C2Sc1ccc(OC)cc1 (stereo not given)",
    "CLASSIFICATION": "no"
  },
  {
    "COMPOUND": "C=C1C(=O)O[C@H]2[C@H]1CC/C(COC(=O)CCCCCCC(=O)OC/C1=C/CC[C@@]3(C)O[C@H]3[C@H]3OC(=O)C(=C)[C@@H]3CC1)=C\\CC[C@@]1(C)O[C@@H]21",
    "CLASSIFICATION": "no"
  }
]

**Query** Outcome? CCCCC(=O)Nc1c(C(=O)Nc2ccccc2)sc2nc3c(cc12)C(OC(=O)CCCC)CCC3 (stereo not given)
**Result** no

**Query** Same lookup for `CCOC(=O)/C(=C/c1c(-c2ccccc2)[nH]c2ccccc12)C(=O)c1ccc(Cl)cc1` , please.
**Result** no

**Query** Then what about the compound `Cc1cc(C)n(-c2nc(-c3cccs3)c(C#N)c(=O)[nH]2)n1` ?
**Result** no

**Query** Check `O=C(Nc1ccc2ncnc(Nc3ccc(F)c(Cl)c3)c2c1)c1ccccc1` too.
**Result** no

**Query** Also `C=C(C)[C@@H]1CC[C@]2(C(=O)N=C=S)CC[C@]3(C)[C@H](CC[C@@H]4[C@@]5(C)CCC(=O)C(C)(C)[C@@H]5CC[C@]43C)[C@@H]12` ?
**Result** no

**Query** Try this compound next: `O=C1C(Cl)=C(Nc2ccc3c(c2NC2=C(Cl)C(=O)c4ccccc4C2=O)C(=O)c2ccccc2C3=O)C(=O)c2ccccc21`
**Result** yes
